Molecular target: human PTH-2 receptor (human, UniProt P49190 25-550)
Sequence (P49190 25-550): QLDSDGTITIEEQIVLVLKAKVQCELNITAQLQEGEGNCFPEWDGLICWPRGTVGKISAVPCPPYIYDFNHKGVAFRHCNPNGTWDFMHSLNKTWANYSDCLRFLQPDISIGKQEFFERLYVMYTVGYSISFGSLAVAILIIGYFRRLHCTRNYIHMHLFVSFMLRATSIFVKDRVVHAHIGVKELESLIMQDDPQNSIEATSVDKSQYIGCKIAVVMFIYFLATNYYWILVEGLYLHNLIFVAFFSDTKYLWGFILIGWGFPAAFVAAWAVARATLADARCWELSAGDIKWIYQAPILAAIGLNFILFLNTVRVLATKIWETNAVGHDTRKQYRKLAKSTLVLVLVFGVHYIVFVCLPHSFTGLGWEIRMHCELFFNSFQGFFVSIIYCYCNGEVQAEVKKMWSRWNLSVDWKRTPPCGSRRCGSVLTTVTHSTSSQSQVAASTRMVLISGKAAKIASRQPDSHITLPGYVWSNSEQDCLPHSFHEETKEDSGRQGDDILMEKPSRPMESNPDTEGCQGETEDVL
Assay: cell-based or functional assay
Where no end group is shown, it is not given here.
In this section, each of the binders is paired with its reported cAMP accumulation Maximum.
Measured Metric: cAMP accumulation Maximum

{"Binder": "SVSEHQLMHNLGKHLNSMERVEFLRKKLQDVHNY-NH2 [[H5, F23, Y34]hPTH-(1-34)NH2]", "Measured Metric": "cAMP accumulation Maximum", "Observed Measurement": "7.1 pmoles/well"}
{"Binder": "SVSEHQLMHNLGKHLNSMERVEWLRKKLQDVHNY-NH2 [[H5, Y34]hPTH-(1-34)NH2]", "Measured Metric": "cAMP accumulation Maximum", "Observed Measurement": "10 pmoles/well"}
{"Binder": "AVSEIQLLHDKGKSIQDLRRRFWLHHLIAEIHTAEY-NH2 (also called [Ile^5, Trp^23]PTHrP-(1-36); [Ile^5,Trp^32]PTHrP-(1-36) [sic]) [[I5, W23, Y36]hPTHrP-(1-36)NH2]", "Measured Metric": "cAMP accumulation Maximum", "Observed Measurement": "65 pmoles/well"}
{"Binder": "AVSEHQLLHDKGKSIQDLERVEWLRKKLQDVHNY-NH2 (also: radioiodinated in direct binding test, Synthetic PTH/PTHrP hybrid ligand; also called radioiodinated hybrid-5 peptide) [Hybrid-5 hPTHrP-(1-18)/[Y34]hPTH-(19-34)NH2]", "Measured Metric": "cAMP accumulation Maximum", "Observed Measurement": "6.2 pmoles/well"}
{"Binder": "AVSEIQLLHDKGKSIQDLRRRFFLHHLIAEIHTAEY-NH2 [[I5, Y36]hPTHrP-(1-36)NH2]", "Measured Metric": "cAMP accumulation Maximum", "Observed Measurement": "80 pmoles/well"}
{"Binder": "AVSEHQLLHDKGKSIQDLRRRFFLRKKLQDVHNY-NH2 (Synthetic PTH/PTHrP hybrid ligand; also called PTHrP-(1-23)/PTH-(24-34)) [Hybrid-3 hPTHrP-(1-23)/[Y34]hPTH-(24-34)NH2]", "Measured Metric": "cAMP accumulation Maximum", "Observed Measurement": "11 pmoles/well"}

Reference for the values: patent US6362163B1
